# target: Ectonucleotide pyrophosphatase/phosphodiesterase family member 1 (Mus musculus)
# Sequence (P06802 whole entry): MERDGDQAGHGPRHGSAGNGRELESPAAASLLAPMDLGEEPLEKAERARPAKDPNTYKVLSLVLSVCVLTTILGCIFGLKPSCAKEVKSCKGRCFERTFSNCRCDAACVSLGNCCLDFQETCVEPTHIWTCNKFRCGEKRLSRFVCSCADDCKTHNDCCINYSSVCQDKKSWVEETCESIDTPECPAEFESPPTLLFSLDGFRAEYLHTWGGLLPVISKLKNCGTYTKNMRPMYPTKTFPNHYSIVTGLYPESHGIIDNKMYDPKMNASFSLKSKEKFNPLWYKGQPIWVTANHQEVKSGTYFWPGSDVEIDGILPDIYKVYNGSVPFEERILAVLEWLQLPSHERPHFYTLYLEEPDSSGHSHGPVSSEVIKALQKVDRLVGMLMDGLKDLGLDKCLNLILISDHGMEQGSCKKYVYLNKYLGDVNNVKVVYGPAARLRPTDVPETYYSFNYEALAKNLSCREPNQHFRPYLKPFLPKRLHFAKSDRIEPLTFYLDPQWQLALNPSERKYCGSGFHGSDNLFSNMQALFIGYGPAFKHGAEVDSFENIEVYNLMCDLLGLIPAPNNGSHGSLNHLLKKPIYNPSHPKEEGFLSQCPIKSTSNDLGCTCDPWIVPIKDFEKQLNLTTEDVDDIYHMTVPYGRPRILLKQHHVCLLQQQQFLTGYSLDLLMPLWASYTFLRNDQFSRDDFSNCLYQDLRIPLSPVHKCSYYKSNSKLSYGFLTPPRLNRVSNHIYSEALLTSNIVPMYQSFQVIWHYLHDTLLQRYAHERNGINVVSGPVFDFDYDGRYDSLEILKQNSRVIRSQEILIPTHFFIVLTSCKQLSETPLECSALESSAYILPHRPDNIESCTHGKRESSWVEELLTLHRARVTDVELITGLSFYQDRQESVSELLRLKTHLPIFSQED
In this section we review reported IC50 values for a set of molecules.

recordSmiles | IC50
COc1ccc2c(N3CCC(CCOP(O)(O)=S)CC3)c(C#N)cnc2c1 | > 100 nM
COc1cc2ncnc(NCc3ccc(P(=O)(O)O)cc3)c2cc1OC | < 50 nM
COc1cccc2c(NCc3ccc(P(=O)(O)O)cc3)c(C#N)cnc12 | < 50 nM
COc1ccc2c(N3CCC(CCB(O)O)CC3)c(C#N)cnc2c1 | > 100 nM
COc1cccc2c(NCc3ccc(P(=O)(O)O)cc3)ncnc12 | < 50 nM
COc1cccc2c(N3CCC(COP(O)(O)=S)CC3)c(C#N)cnc12 | > 100 nM
COc1ccc2c(N3CCC(COP(O)(O)=S)CC3)c(C#N)cnc2c1 | > 100 nM
COc1ccc2c(N3CCC(CCCP(=O)(O)O)CC3)c(C#N)cnc2c1 | < 50 nM
